The reported numbers originate from PubChem BioAssay (NCI).

test system: KM12 colon; test: NCI tumour cell line growth inhibition, 48 h
Kindly supply the reported TGI values for the records listed here.

Would you please look over these solved cases?
{"Molecule": "Cc1ccc2c(c1)C(C1Cc3cccc(C)c3C1=O)OC2=O (stereo not drawn)", "Recorded value": "> 100 µM"}
{"Molecule": "O=C(c1nc2ccc(Cl)cc2[nH]c1=O)C(O)c1ccc2c(c1)OCO2 (stereo not drawn)", "Recorded value": "> 100 µM"}

Provide reported TGI for each item, in the same order as listed.
1. COC(=O)Cc1c(/C=C/C(C)(C)n2cnc(CCN3C(=O)CCC3=O)c2)[nH]c2ccccc12
2. COc1ccc(OC)c(/C=C2\COc3ccc(O)c(O)c3C2=O)c1
3. COc1ccc(C(=O)C(C(=O)C(=O)NC2C3CC4CC(C3)CC2C4)c2ccc(OC)cc2)cc1 (stereo not drawn)
4. N#Cc1c(-c2cccc(Cl)c2)cc(-c2ccc(Cl)cc2)nc1N
5. COCCN(CCOC)C(=O)COc1c2cc(C(C)(C)C)cc1Cc1cc(C(C)(C)C)cc(c1OCC(=O)N(CCOC)CCOC)Cc1cc(C(C)(C)C)cc(c1OCC(=O)N(CCOC)CCOC)Cc1cc(C(C)(C)C)cc(c1OCC(=O)N(CCOC)CCOC)Cc1cc(C(C)(C)C)cc(c1OCC(=O)N(CCOC)CCOC)C2
6. COC(=O)C1=C(CS(=O)c2ccc([N+](=O)[O-])cc2[N+](=O)[O-])ON(C)C1c1ccccc1 (stereo not drawn)

1: > 100 µM; 2: 3.92 µM; 3: > 100 µM; 4: 80.7 µM; 5: 11.1 µM; 6: > 100 µM
